testName: melting temperature; fluorescence melt of hairpins on a sequencing array, two-state fit, raised by 9.35 °C to match UV melts
settings: sodium 0.088 M
experimentalReadout: Tm (°C)
All answers are understood in °C, so give the number only.

chainSequence	Tm (°C)
GATCGGGCCCCCGATC ((((((....))))))	59.6

Note down Tm recorded for GCGGTCCCCGC ((((...)))) 67.5

Note down Tm recorded for GCCAAGCGAAAGCGTTGC ((.(.((....)).).)) 40.1

Note down Tm recorded for GATCTGGGCCCAGATC ((((((....)))))) 58.9

Note down Tm recorded for GTATCGCGAAAGCGTAC (((.(((....)))))) 44.5

Note down Tm recorded for GTGACCGAAAGGTCCAC ((((((....))).))) 47.1

Note down Tm recorded for GATGAGACGAAAGTCATC (((..(((....)))))) 35.9

###

testName: melting temperature; fluorescence melt of hairpins on a sequencing array, two-state fit, raised by 9.35 °C to match UV melts
settings: sodium 0.088 M
experimentalReadout: Tm (°C)
All answers are understood in °C, so give the number only.

chainSequence	Tm, °C
GATCGAAATCTCGATC ((((((....))))))	48.7
GTAAGAGGAAACTCTTGC (.(((((....))))).)	38.7
GGTTGCGGAAACGCAGTC (..((((....))))..)	36.1
GCTAGGGGAAACTCTGGC ((.((.(....).)).))	32.9
GTCAATGGAAACGTTGAC (((((.(....).)))))	48.1
GCTCGCGAAAGCGAAAGC ((((((....)))..)))	54.3
GGGGCCGAAAGGCAACCC ((((((....)))..)))	57.3
GGCTGGGGAAACCTGGCC (((..((....))..)))	51.7
GGCCCCGAAAGGGTAGCC ((((((....)))..)))	60.1
GATCGACCGATCGATC ((((((....))))))	51.6

Note down Tm recorded for GTATCCGAAAGGAAATAC ((((((....)))..))) 31

Note down Tm recorded for GCACCGCGAAAGCGTAGC ((..(((....)))..)) 41.2

###

testName: folding enthalpy; higher = less favourable; fluorescence melt of hairpins on a sequencing array, two-state fit
settings: sodium 0.088 M
experimentalReadout: folding enthalpy (kJ/mol)
All answers are understood in kJ/mol, so give the number only.

Solved cases (5 shown):
chainSequence	folding enthalpy [kJ/mol]
GATCTGTGATCAGATC ((((((....))))))	-142
GGTGTTGGAAACGACATC (.(((.(....).))).)	-89.2
GGATGAGGAAACTCGTCC (((.(((....))).)))	-161
GAACACGAAAGTGGTTC ((((((....))).)))	-78
GCCAGCCCGAAAGGGGGC (((..(((....))))))	-61.5

Next:
Note down folding enthalpy recorded for GGTGCCGAAAGGCCGACC ((((((....)))..))) -58.9

###

testName: melting temperature; fluorescence melt of hairpins on a sequencing array, two-state fit, raised by 9.35 °C to match UV melts
settings: sodium 0.088 M
experimentalReadout: Tm (°C)
All answers are understood in °C, so give the number only.

chainSequence	Tm (°C)
GATGACGAAAGTCCATC ((((((....))).)))	41.5

Note down Tm recorded for GCCCACGGAAACGTGGAC (.(((((....))))).) 50.6

Note down Tm recorded for GTGAGTCGAAAGACCCAC (((.(((....))).))) 49.3

Note down Tm recorded for GAGGAAACGAAAGTTCTC (((..(((....)))))) 24.6

Note down Tm recorded for GGCGTCGGAAACGACACC ((.((((....)))).)) 53.9

Note down Tm recorded for GACTATGGAAACATAGCC (.(((((....))))).) 35.7

###

testName: folding enthalpy; higher = less favourable; fluorescence melt of hairpins on a sequencing array, two-state fit
settings: sodium 0.088 M
experimentalReadout: folding enthalpy

Solved cases (10 shown):
chainSequence	folding enthalpy
GCGAAACCTCGC ((((....))))	-19.9 kcal/mol
GATCTGAAGGCAGATC ((((((....))))))	-41.9 kcal/mol
GTCCGCGAAAGCGGAGAC ((((((....)))..)))	-7 kcal/mol
GGACTGCGAAAGCAATCC (((.(((....))).)))	-12.7 kcal/mol
GTGAAACGAAAGTTCCAC (((.(((....))).)))	-22.8 kcal/mol
GGAAGGCGAAAGCCCTCC (((.(((....))).)))	-16.8 kcal/mol
GTTGCCGAAAGGCCGAAC ((((((....)))..)))	-7.22 kcal/mol
GGGGTAGGAAACTGCCTC (.((.((....)).)).)	-25.1 kcal/mol
GATAGCGAAAGCTATATC ((((((....)))..)))	-14.3 kcal/mol
GGGCAAGGAAACTTGTCC ((.((((....)))).))	-40.7 kcal/mol

Note down folding enthalpy recorded for GTTAGCGAAAGCTGAAC ((((((....))).))) -13.2 kcal/mol

Note down folding enthalpy recorded for GGCCATGGAAACGTGGTC (.(((.(....).))).) -33.2 kcal/mol

Note down folding enthalpy recorded for GCCAAGCGAAAGCTTTGC ((.((((....)))).)) -21.4 kcal/mol

Note down folding enthalpy recorded for GCCGGCGAAAGCCAGGGC ((((((....)))..))) -18.7 kcal/mol

###

testName: folding enthalpy; higher = less favourable; fluorescence melt of hairpins on a sequencing array, two-state fit
settings: sodium 0.088 M
Listing: folding enthalpy of selected sequences
All answers are understood in kcal/mol, so give the number only.

chainSequence	reportedValue
TGTGAGAAATCACA (((((....)))))	-18.3
GTGGGAGCGAAAGCTCAC (((..(((....))))))	-19.2
GAGTACGAAAGTACTC ((((((....))))))	-35.7
GATCTTGGTAAAGATC ((((((....))))))	-41.3
GCTGGCGAAAGCCCTAGC ((((((....)))..)))	-12

Note down folding enthalpy recorded for GATCAGGACCCTGATC ((((((....)))))) -39.6

Note down folding enthalpy recorded for GTAATAACGAAAGTTTAC (((..(((....)))))) -10.5

Note down folding enthalpy recorded for GTGACCGAAAGGTTGCAC ((((((....)))..))) -13.8

Note down folding enthalpy recorded for GCTTAGCGAAAGCTAGC (((.(((....)))))) -19.2

Note down folding enthalpy recorded for GGTATCGAAAGATCCACC ((((((....)))..))) -14.7

Note down folding enthalpy recorded for GCGATGCGAAAGCAGGGC ((..(((....)))..)) -20.4

Note down folding enthalpy recorded for GTGCGCGGAAACGCACAC (((.(((....))).))) -19.2

Note down folding enthalpy recorded for GGCTTCGAAAGAATCGCC ((((((....)))..))) -27.7

###

testName: melting temperature; fluorescence melt of hairpins on a sequencing array, two-state fit, raised by 9.35 °C to match UV melts
settings: sodium 0.088 M
experimentalReadout: Tm (°C)
All answers are understood in °C, so give the number only.

Note down Tm recorded for GATCAATTGATTGATC ((((((....)))))) 47.2

###

testName: melting temperature; fluorescence melt of hairpins on a sequencing array, two-state fit, raised by 9.35 °C to match UV melts
settings: sodium 0.088 M
Listing: Tm of selected sequences
All answers are understood in °C, so give the number only.

chainSequence	experimentalReadout	reportedValue
GTACGGGCGAAAGCCTAC (((..(((....))))))	Tm	30

Note down Tm recorded for GCCAACGGAAACGTCAGC ((..(((....)))..)) 28.3

Note down Tm recorded for GCGTTCGGAAACGGATGC ((.(.((....)).).)) 44.7

Note down Tm recorded for GATCCAGCGTTGGATC ((((((....)))))) 49.6

Note down Tm recorded for GCATCCGAAAGGACCTGC ((((((....)))..))) 30

Note down Tm recorded for GTAGGCGGAAACGTCTAC ((((.((....)).)))) 53.1

Note down Tm recorded for CGTTGCGGAAACGCACG (((.(((....)))))) 52.8

Note down Tm recorded for GCCGGCGAAAGCCATGGC ((((((....)))..))) 56.1

###

testName: folding enthalpy; higher = less favourable; fluorescence melt of hairpins on a sequencing array, two-state fit
settings: sodium 0.088 M
experimentalReadout: folding enthalpy
Report as: number unit

Solved cases (5 shown):
chainSequence	folding enthalpy
GATGCGCGAAAGCGATC (((.(((....))))))	-12 kcal/mol
GATCTGAGCCAGATC ((((((...))))))	-41.7 kcal/mol
GGATGCGAAAGCAAATCC ((((((....)))..)))	-21 kcal/mol
GTAGCTGGAAACAACTAC ((((.((....)).))))	-27.2 kcal/mol
GATCAAATTATTGATC ((((((....))))))	-27.7 kcal/mol

Note down folding enthalpy recorded for GATCCCGAAAGGGTTATC ((((((....)))..))) -8.18 kcal/mol

Note down folding enthalpy recorded for GTTCTTGGAAACAGGAAC ((((.((....)).)))) -34.1 kcal/mol

Note down folding enthalpy recorded for GTATTTGGAAACAAATAC (((((((....))))))) -44.3 kcal/mol

Note down folding enthalpy recorded for GCAGGGCGAAAGCCGCGC ((..(((....)))..)) -22.2 kcal/mol

Note down folding enthalpy recorded for GGGAACCGAAAGGTACCC (((.(((....))).))) -34.5 kcal/mol

Note down folding enthalpy recorded for GCAGTCACGAAAGTGTGC (((..(((....)))))) -19.5 kcal/mol

Note down folding enthalpy recorded for GCGGTGCGAAAGCCCGGC ((.(.((....)).).)) -12.4 kcal/mol
